AntiCD3/CD28 (CD4 T cell proliferation) repeat 2, % inhibition values for the binders below.
target: chimeric BTLA of humanised-BTLA mice (human extracellular region, murine transmembrane and signaling … (human; mouse, UniProt Q7TSA3 184-306, limits assumed); assay: cell-based or functional assay
Sequence (Q7TSA3 other isoform, or with tags, fused parts or gaps mutant limits assumed): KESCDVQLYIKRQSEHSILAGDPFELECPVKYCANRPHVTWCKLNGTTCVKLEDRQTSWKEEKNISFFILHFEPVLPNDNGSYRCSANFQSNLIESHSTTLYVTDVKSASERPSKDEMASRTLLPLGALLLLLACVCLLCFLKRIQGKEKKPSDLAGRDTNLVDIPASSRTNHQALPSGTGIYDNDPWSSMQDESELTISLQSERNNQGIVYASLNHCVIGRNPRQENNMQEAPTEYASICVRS
Please state the figure in %; there is no need to write the unit.

These recorded examples may help you get a feel for the data.
Query string: Quote AntiCD3/CD28 (CD4 T cell proliferation) repeat 2, % inhibition reported for 8C4 (antibody, IgG1, V domains shown) VH: DVQLQESGPGMVKPSQSLSLTCTVTGYSITSGYDWHWIRHFPGNKLEWMGYISYSGSTNYNPSLKSRISITHDTSKNHFFLKLNSVTTEDTATYYCARGTPVVAEDYFDYWGQGTTLTVSS VL: QAVVTQESALSTSPGETVTLTCRSSTGAVTTSNYANWVQEKPDHLFTGLIGATNNRAPGVPARFSGSLIGDKAALTITGAQTEDEAIYFCALWYSNHLVFGGGTKLTVLG please.
Result string: 4

Query string: Quote AntiCD3/CD28 (CD4 T cell proliferation) repeat 2, % inhibition reported for 2.8.6 (antibody, IgG1, V domains shown) VH: QVQLKESGPGLVAPSQSLSITCTVSGFSLTTYGVHWVRQSPGKGLEWLGVMWPGGRTSYNPAPMSRLSISKDNSKSQVFLKMNSLQTDDTAMYYCVRGDYEYDYYAMDYWGQGTSVTVSS VL: QIVLSQSPAILSASPGEKVTMTCRASSSVSYMHWYQQKPGSSPKPWIYATSNLASGVPARFSGSGSGTSYSLTISRMEAEDAATYYCHQWSSNPYTFGGGTKLEIK please.
Result string: 35

Alright, here's another binder for you.
Query string: Quote AntiCD3/CD28 (CD4 T cell proliferation) repeat 2, % inhibition reported for 4B1 (antibody, IgG1, V domains shown) VH: QVQLQQSGAELARPGASVRLSCKASGYTFTSYGLIWLKQRTGQGLEWIGEIYPRSGSTYYNEWFKGKATLTADKSSNTAFMELRSLTSEDSAVYFCARRRGTGDGFDYWGQGTILTVSS VL: DIQMTQTTSSLSASLGDRVTISCSASQGISNYLNWYQQKPDGTVKLLIYYTSSLHSGVPSRFSGSGSGTDYSLTISNLEPEDIATYYCQQYIELPFTFGSGTKLEIK please.
Result string: 18

Value source: patent US20220177589A1
